B1: library; numbered along this chain (parent)
chain: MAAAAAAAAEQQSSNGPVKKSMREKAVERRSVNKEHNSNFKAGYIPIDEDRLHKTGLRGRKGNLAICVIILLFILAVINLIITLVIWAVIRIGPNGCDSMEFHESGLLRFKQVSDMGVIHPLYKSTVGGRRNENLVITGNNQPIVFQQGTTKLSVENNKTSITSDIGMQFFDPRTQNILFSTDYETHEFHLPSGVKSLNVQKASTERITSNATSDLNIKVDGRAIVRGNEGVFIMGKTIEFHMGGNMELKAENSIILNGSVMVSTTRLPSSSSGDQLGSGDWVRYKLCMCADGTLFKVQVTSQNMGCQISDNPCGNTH

variants of: B1; experiment: SGCB cell-surface expression functional score (HA stain, bin4 vs bin1, normalised to synonymous) (log10 ratio); higher = more cell-surface SGCB (functional)
ASSAY_READOUT: SGCB cell-surface expression functional score (log10)
Just the number, please, no unit after it.

Please look up its SGCB cell-surface expression functional score (log10): `R267E`
-0.053

Here is the next variant: `L80N`
0.12

Here is the next variant: `R267K`
0.76

Here is the next variant: `N253G`
0.43

Here is the next variant: `A88T`
0.17

Here is the next variant: `S310L`
0.07

Here is the next variant: `G222A`
0.63

Here is the next variant: `K61Q`
-0.08

Here is the next variant: `G167K`
-0.34

Here is the next variant: `M168W`
-2.06

Here is the next variant: `A5P`
-0.19

Here is the next variant: `I47N`
0.73

Here is the next variant: `R30H`
-0.02

Here is the next variant: `S214A`
0.25

Here is the next variant: `P121M`
-0.6

Here is the next variant: `V136S`
-0.3

Here is the next variant: `C307E`
-0.34

Here is the next variant: `R23V`
0.59

Here is the next variant: `D221G`
0.35

Here is the next variant: `N158S`
0.15

Here is the next variant: `Q308K`
-0.5

Here is the next variant: `A251K`
-1.77

Here is the next variant: `N157Q`
0.38

Here is the next variant: `E206K`
-0.41

Here is the next variant: `F170R`
-1.14

Here is the next variant: `E24C`
-0.3

Here is the next variant: `M116L`
0.08

Here is the next variant: `F110M`
-0.98

Here is the next variant: `S204A`
-0.04

Here is the next variant: `L57F`
0.06

Here is the next variant: `L191W`
-0.06

Here is the next variant: `A212T`
0.02

Here is the next variant: `D165N`
-0.35

Here is the next variant: `I66Q`
-0.15

Here is the next variant: `Q176H`
-0.38

Here is the next variant: `F73I`
-0.11

Here is the next variant: `T301Q`
0.16

Here is the next variant: `M243S`
0.81

Here is the next variant: `C314K`
0.06

Here is the next variant: `R60P`
-0.19

Here is the next variant: `Q11G`
0.64

Here is the next variant: `R58N`
0.17

Here is the next variant: `S164F`
-1.08

Here is the next variant: `P192F`
-0.5

Here is the next variant: `K20P`
0.39

Here is the next variant: `E248C`
-0.97

Here is the next variant: `R23M`
-0.27

Here is the next variant: `D221H`
0.75

Here is the next variant: `V32R`
0.37

Here is the next variant: `A76H`
-0.07

Here is the next variant: `C307A`
-0.28

Here is the next variant: `M262K`
0.79

Here is the next variant: `G278P`
0.23

Here is the next variant: `K286Q`
-0.61

Here is the next variant: `K111V`
-0.57

Here is the next variant: `G96C`
-1.66

Here is the next variant: `F189D`
-1.52

Here is the next variant: `L257Q`
-1.3

Here is the next variant: `G315M`
0.54

Here is the next variant: `V155R`
-1.45

Here is the next variant: `D115A`
-1.73

Here is the next variant: `N304A`
-0.43

Here is the next variant: `L249V`
0.75

Here is the next variant: `A5M`
0.25

Here is the next variant: `I69C`
0.05

Here is the next variant: `S204C`
-0.16

Here is the next variant: `P173K`
-0.93

Here is the next variant: `K286W`
-0.09

Here is the next variant: `L84R`
0.08

Here is the next variant: `L71K`
0.36

Here is the next variant: `K202Q`
0.17

Here is the next variant: `E35R`
0.18

Here is the next variant: `G16P`
0.37

Here is the next variant: `K34S`
0.52

Here is the next variant: `V85H`
-0.11

Here is the next variant: `D98W`
-0.73

Here is the next variant: `C67I`
0.33

Here is the next variant: `S125R`
-1.09

Here is the next variant: `R109H`
-0.61

Here is the next variant: `I144T`
-0.64

Here is the next variant: `R91Q`
0.15

Here is the next variant: `K41Q`
0.4

Here is the next variant: `L122T`
0.13

Here is the next variant: `S279Q`
-0.19

Here is the next variant: `G236Y`
-1.44

Here is the next variant: `P143K`
-0.28

Here is the next variant: `K196Q`
0.02

Here is the next variant: `A212K`
-1.05

Here is the next variant: `V68N`
0.03

Here is the next variant: `R58L`
0

Here is the next variant: `I86R`
-0.77
